What Emax at 10 µM was measured for each of the following?
experimental-system: GABAA receptor α1β2γ2 (Homo sapiens, UniProt P14867+P47870)
Construct: expressed in transfected cells
Sequence (P14867 28-456): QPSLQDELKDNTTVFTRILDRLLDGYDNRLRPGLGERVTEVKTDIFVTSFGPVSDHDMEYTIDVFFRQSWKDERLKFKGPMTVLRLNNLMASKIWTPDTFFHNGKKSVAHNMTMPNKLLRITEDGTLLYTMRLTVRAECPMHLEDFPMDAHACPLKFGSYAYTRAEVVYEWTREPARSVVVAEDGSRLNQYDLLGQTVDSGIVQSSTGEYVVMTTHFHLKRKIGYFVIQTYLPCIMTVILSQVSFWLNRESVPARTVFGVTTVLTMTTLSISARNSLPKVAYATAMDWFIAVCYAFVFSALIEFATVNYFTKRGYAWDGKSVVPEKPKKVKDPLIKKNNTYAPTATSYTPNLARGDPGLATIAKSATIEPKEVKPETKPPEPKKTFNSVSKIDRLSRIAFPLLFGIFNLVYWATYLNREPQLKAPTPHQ
Sequence (P47870 25-512 limits assumed): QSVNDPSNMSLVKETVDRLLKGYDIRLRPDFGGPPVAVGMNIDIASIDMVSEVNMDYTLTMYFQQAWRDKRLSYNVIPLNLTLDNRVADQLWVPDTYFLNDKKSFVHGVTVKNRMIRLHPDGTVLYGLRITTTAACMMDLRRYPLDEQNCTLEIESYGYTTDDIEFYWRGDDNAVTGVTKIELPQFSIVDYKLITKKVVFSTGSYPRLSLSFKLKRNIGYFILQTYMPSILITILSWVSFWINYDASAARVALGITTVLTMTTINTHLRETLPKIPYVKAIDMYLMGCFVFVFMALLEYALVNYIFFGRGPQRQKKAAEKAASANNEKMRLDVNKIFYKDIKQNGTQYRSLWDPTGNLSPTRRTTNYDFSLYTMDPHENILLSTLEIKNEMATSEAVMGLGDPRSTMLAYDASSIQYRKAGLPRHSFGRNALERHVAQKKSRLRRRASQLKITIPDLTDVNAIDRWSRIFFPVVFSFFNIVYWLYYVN
Sequence (P18507 40-475 partner): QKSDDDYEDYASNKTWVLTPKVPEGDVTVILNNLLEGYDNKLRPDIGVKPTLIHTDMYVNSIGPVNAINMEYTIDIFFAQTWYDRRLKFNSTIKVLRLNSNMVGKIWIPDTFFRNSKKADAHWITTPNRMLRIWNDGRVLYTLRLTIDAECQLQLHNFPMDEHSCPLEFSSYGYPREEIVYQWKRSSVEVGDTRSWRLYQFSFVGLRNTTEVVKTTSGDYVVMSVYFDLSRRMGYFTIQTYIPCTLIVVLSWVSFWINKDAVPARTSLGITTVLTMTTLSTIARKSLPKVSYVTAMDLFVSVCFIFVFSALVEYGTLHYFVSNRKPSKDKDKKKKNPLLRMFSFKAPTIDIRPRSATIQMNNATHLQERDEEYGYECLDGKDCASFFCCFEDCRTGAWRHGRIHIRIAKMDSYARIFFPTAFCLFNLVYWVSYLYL
run-description: Patch clamp electrophysiology, Qpatch in Ltk cells
Format: cell-based
measurement-conditions: 10 μM test article, GABA EC20 2 μM, read-out: GABA (α1β2γ2) Qpatch in Ltk, % efficacy at 10 μM
Experimental: Patch Clamp Electrophysiology of Recombinant α1β2γ2 and α4β3δ GABAA Receptors Cellular electrophysiology is used to measure the pharmacological properties of our GABAA receptor modulators in heterologous cell systems. Each compound is tested for its ability to affect GABA mediated currents at a submaximal agonist dose (GABA EC20=2 μM). […] Whole cell currents were measured with HEKA EPC-10 amplifiers using PatchMaster software or by using the high throughput QPatch platform (Sophion). […]

Challenge: Given CSc1cnn(CC(=O)[C@H]2CC[C@H]3[C@@H]4C[C@@H](F)[C@H]5C[C@](C)(O)CC[C@@H]5[C@H]4CC[C@]23C)c1 , state its recorded Emax at 10 µM.
Response given: 100 to 500%

Challenge: Given C[C@@]1(O)CC[C@H]2[C@H](CC[C@@H]3[C@@H]2CC[C@]2(C)[C@@H](C(=O)Cn4cc(C(F)(F)F)cn4)CC[C@@H]32)C1 , state its recorded Emax at 10 µM.
Response given: 100 to 500%

Challenge: Given Cc1ccn(CC(=O)[C@H]2CC[C@H]3[C@@H]4CC[C@@H]5C[C@](C)(O)CC[C@@H]5[C@H]4CC[C@]23C)n1 , state its recorded Emax at 10 µM.
Response given: > 500%

====

experimental-system: [35S]-TBPS binding, rat brain cortical membranes (GABA receptor complex)
run-description: Steroid inhibition of [35S]-TBPS binding
measurement-conditions: 3 nM [35S]-TBPS, 5 μM GABA
pIC50: −log10 of the molar value.
What pIC50 was measured for each of the following?

Challenge: Given Cc1cc(C)n(CC(=O)[C@H]2CC[C@H]3[C@@H]4CC[C@@H]5C[C@](C)(O)CC[C@@H]5[C@H]4CC[C@]23C)n1 [SA-12] , state its recorded pIC50.
Response given: 7.30 to 8.00

Challenge: Given COC[C@@]1(O)CC[C@H]2[C@@H](CC[C@@H]3[C@@H]2CC[C@]2(C)[C@@H](C(=O)Cn4cc(S(C)(=O)=O)cn4)CC[C@@H]32)C1 [SB-7] , state its recorded pIC50.
Response given: ≤ 6.30

Challenge: Given CO[C@H]1C[C@H]2[C@@H](CC[C@@H]3[C@@H]2CC[C@]2(C)[C@@H](C(=O)Cn4cccn4)CC[C@@H]32)C[C@]1(C)O [SB-19] , state its recorded pIC50.
Response given: 6.30 to 7.00

Challenge: Given C[C@@]1(O)CC[C@H]2[C@H](CC[C@@H]3[C@@H]2CC[C@]2(C)[C@@H](C(=O)Cn4nccc4C(F)(F)F)CC[C@@H]32)C1 [SA-2] , state its recorded pIC50.
Response given: 7.00 to 7.30

====

What Emax at 10 µM was measured for each of the following?
experimental-system: GABAA receptor α1β2γ2 (Homo sapiens, UniProt P14867+P47870)
Construct: expressed in transfected cells
run-description: Patch clamp electrophysiology, Qpatch in Ltk cells
Format: cell-based
measurement-conditions: 10 μM test article, GABA EC20 2 μM, read-out: GABA (α1β2γ2) Qpatch in Ltk, % efficacy at 10 μM

Challenge: Given C[C@]12CC[C@H]3[C@@H](CC[C@H]4C[C@@](O)(CF)CC[C@@H]43)[C@@H]1CC[C@@H]2C(=O)Cn1cccn1 , state its recorded Emax at 10 µM.
Response given: 100 to 500%

Challenge: Given CC[C@@]1(O)CC[C@H]2[C@H](CC[C@@H]3[C@@H]2CC[C@]2(C)[C@@H](C(=O)Cn4cc(C#N)cn4)CC[C@@H]32)C1 , state its recorded Emax at 10 µM.
Response given: 100 to 500%

Challenge: Given C[C@@]1(O)CC[C@H]2[C@H](CC[C@@H]3[C@@H]2CC[C@]2(C)[C@@H](C(=O)Cn4cc(Br)cn4)CC[C@@H]32)C1 , state its recorded Emax at 10 µM.
Response given: 100 to 500%

Challenge: Given Cc1ccnn1CC(=O)[C@H]1CC[C@H]2[C@@H]3CC[C@@H]4C[C@](C)(O)CC[C@@H]4[C@H]3CC[C@]12C , state its recorded Emax at 10 µM.
Response given: 100 to 500%

Challenge: Given C[C@]12CC[C@H]3[C@@H](CC[C@@H]4C[C@@](O)(C(F)F)CC[C@@H]43)[C@@H]1CC[C@@H]2C(=O)Cn1cc(C#N)cn1 , state its recorded Emax at 10 µM.
Response given: > 500%

Challenge: Given C[C@@]1(O)CC[C@H]2[C@H](CC[C@@H]3[C@@H]2CC[C@]2(C)[C@@H](C(=O)Cn4cc(C#N)cn4)CC[C@@H]32)C1 , state its recorded Emax at 10 µM.
Response given: 100 to 500%

Challenge: Given C[C@@]1(O)CC[C@H]2[C@H](CC[C@@H]3[C@@H]2CC[C@]2(C)[C@@H](C(=O)Cn4cc(S(C)(=O)=O)cn4)CC[C@@H]32)C1 , state its recorded Emax at 10 µM.
Response given: 100 to 500%

Challenge: Given COC[C@@]1(O)CC[C@H]2[C@H](CC[C@@H]3[C@@H]2CC[C@]2(C)[C@@H](C(=O)Cn4cccn4)CC[C@@H]32)C1 , state its recorded Emax at 10 µM.
Response given: > 500%

Challenge: Given C[C@@]1(O)CC[C@@H]2[C@H]3CC[C@]4(C)[C@@H](C(=O)Cn5cc(S(C)(=O)=O)cn5)CC[C@H]4[C@@H]3C[C@@H](F)[C@H]2C1 , state its recorded Emax at 10 µM.
Response given: 100 to 500%

====

What pEC50 was measured for each of the following?
experimental-system: GABAA-R (Homo sapiens, UniProt P14867+P47870)
Sequence (P14867 whole entry): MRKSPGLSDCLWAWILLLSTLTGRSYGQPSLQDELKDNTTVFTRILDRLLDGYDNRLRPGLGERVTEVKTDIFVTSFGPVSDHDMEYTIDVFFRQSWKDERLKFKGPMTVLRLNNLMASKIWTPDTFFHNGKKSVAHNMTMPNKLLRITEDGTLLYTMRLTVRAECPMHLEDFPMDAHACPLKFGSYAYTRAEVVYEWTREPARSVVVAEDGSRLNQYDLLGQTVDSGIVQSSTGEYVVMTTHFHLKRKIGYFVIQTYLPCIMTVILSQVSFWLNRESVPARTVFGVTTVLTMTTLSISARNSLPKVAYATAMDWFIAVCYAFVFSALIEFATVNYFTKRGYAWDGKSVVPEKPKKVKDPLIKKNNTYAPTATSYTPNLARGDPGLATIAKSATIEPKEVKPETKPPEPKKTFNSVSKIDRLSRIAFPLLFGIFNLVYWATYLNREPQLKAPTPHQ
Sequence (P47870 whole entry): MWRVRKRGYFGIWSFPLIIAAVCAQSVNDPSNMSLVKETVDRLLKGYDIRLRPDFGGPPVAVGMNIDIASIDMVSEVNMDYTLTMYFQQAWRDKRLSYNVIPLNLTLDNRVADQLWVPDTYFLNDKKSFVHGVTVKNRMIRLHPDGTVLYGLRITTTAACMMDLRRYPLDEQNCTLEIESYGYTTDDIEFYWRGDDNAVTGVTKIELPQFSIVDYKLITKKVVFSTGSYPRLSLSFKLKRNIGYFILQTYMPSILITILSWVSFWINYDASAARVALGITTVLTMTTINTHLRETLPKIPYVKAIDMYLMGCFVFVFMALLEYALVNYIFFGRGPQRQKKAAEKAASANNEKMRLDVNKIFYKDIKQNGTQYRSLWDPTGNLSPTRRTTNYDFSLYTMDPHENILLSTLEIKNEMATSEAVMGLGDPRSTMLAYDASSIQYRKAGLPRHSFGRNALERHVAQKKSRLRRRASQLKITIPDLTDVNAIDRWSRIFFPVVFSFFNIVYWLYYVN
run-description: Electrophysiological evaluation at GABAA-R (Table 2)
Assay type: cell-based
measurement-conditions: GABAA-R electrophysiology; read-out: EC50
pEC50: −log10 of the molar value.

Challenge: Given C[C@@]1(O)CC[C@H]2[C@H](CC[C@@H]3[C@@H]2CC[C@]2(C)[C@@H](C(=O)Cn4cccn4)CC[C@@H]32)C1 , state its recorded pEC50.
Response given: 6.00 to 6.30

Challenge: Given C[C@@]1(O)CC[C@H]2[C@H](CC[C@@H]3[C@@H]2CC[C@]2(C)[C@@H](C(=O)Cn4cc([N+](=O)[O-])cn4)CC[C@@H]32)C1 , state its recorded pEC50.
Response given: 5.70 to 6.00

Challenge: Given CC(=O)c1ccn(CC(=O)[C@H]2CC[C@H]3[C@@H]4CC[C@@H]5C[C@](C)(O)CC[C@@H]5[C@H]4CC[C@]23C)n1 , state its recorded pEC50.
Response given: < 5.70

Challenge: Given Cc1ccnn1CC(=O)[C@H]1CC[C@H]2[C@@H]3CC[C@@H]4C[C@](C)(O)CC[C@@H]4[C@H]3CC[C@]12C , state its recorded pEC50.
Response given: < 5.70

Challenge: Given Cc1cnn(CC(=O)[C@H]2CC[C@H]3[C@@H]4CC[C@@H]5C[C@](C)(O)CC[C@@H]5[C@H]4CC[C@]23C)c1 , state its recorded pEC50.
Response given: 6.30 to 7.00
